tested on: Fusarium oxysporum; assay: Antifungal activity against Fusarium oxysporum at 100 ug/ml after 7 days by poisoned food technique relative to control; assay type: functional

chemical-string	scale-unit	Activity
Cc1cc(C)n2nc(-n3nc(C)cc3C)cc2n1	%	67
Cc1cc(-c2ccc(Cl)cc2)n2nc(-n3nc(C)cc3-c3ccc(Cl)cc3)cc2n1	%	9.8
COc1ccc(-c2cc(C)nn2-c2cc3nc(C)cc(-c4ccc(OC)cc4)n3n2)cc1	%	26.2
Cc1cc(-c2ccccc2)n2nc(-n3nc(C)cc3-c3ccccc3)cc2n1	%	3.65

###

test system: Alternaria alternata; assay: Antifungal activity against Alternaria alternata at 10 ug/ml after 7 days by poisoned food technique relative to control; assay type: functional

chemical-string	test-target	scale-unit	Activity
Cc1cc(-c2ccc(Cl)cc2)n2nc(-n3nc(C)cc3-c3ccc(Cl)cc3)cc2n1	Alternaria alternata	%	0
Cc1cc(-c2ccccc2)n2nc(-n3nc(C)cc3-c3ccccc3)cc2n1	Alternaria alternata	%	18.2
COc1ccc(-c2cc(C)nn2-c2cc3nc(C)cc(-c4ccc(OC)cc4)n3n2)cc1	Alternaria alternata	%	0
Cc1cc(C)n2nc(-n3nc(C)cc3C)cc2n1	Alternaria alternata	%	47.5

###

Items are presented alongside their recorded MIC.
tested on: Staphylococcus aureus; assay: Antibacterial activity against Staphylococcus aureus ATCC 9144 after 24 hrs by broth microdilution method; format: functional; settings: ATCC 9144, 24 h

chemical-string	MIC
Cc1cc(-c2ccccc2)n2nc(-n3nc(C)cc3-c3ccccc3)cc2n1	200 µg/mL
Cc1ccc(-c2cc(C)nn2-c2cc3nc(C)cc(-c4ccc(C)cc4)n3n2)cc1	100 µg/mL
Cc1nn(-c2cc3nc(C)c4c(n3n2)CCC4)c2c1CCC2	400 µg/mL
Cc1cc(-c2cccs2)n2nc(-n3nc(C)cc3-c3cccs3)cc2n1	200 µg/mL
Cc1cc(-c2ccc(Cl)cc2)n2nc(-n3nc(C)cc3-c3ccc(Cl)cc3)cc2n1	100 µg/mL
Cc1cc(-c2ccc(Br)cc2)n2nc(-n3nc(C)cc3-c3ccc(Br)cc3)cc2n1	> 100 µg/mL
COc1ccc(-c2cc(C)nn2-c2cc3nc(C)cc(-c4ccc(OC)cc4)n3n2)cc1	> 100 µg/mL
Cc1cc(C)n2nc(-n3nc(C)cc3C)cc2n1	400 µg/mL

###

system: Bacillus cereus; assay: Antibacterial activity against Bacillus cereus ATCC 11778 after 24 hrs by broth microdilution method; assay type: functional; details: ATCC 11778, 24 h
property-measured: MIC

chemical-string	property-measured	result
Cc1cc(C)n2nc(-n3nc(C)cc3C)cc2n1	MIC	> 400 µg/mL
COc1ccc(-c2cc(C)nn2-c2cc3nc(C)cc(-c4ccc(OC)cc4)n3n2)cc1	MIC	> 100 µg/mL
CC(=O)NC[C@H]1CN(c2ccc(N3CCOCC3)c(F)c2)C(=O)O1	MIC	> 100 µg/mL
Cc1cc(-c2ccc(Cl)cc2)n2nc(-n3nc(C)cc3-c3ccc(Cl)cc3)cc2n1	MIC	50 µg/mL
Cc1nn(-c2cc3nc(C)c4c(n3n2)CCC4)c2c1CCC2	MIC	400 µg/mL
Cc1cc(-c2ccc(Br)cc2)n2nc(-n3nc(C)cc3-c3ccc(Br)cc3)cc2n1	MIC	> 100 µg/mL
Cc1cc(-c2ccccc2)n2nc(-n3nc(C)cc3-c3ccccc3)cc2n1	MIC	200 µg/mL
Cc1ccc(-c2cc(C)nn2-c2cc3nc(C)cc(-c4ccc(C)cc4)n3n2)cc1	MIC	100 µg/mL
Cc1cc(-c2cccs2)n2nc(-n3nc(C)cc3-c3cccs3)cc2n1	MIC	> 200 µg/mL
